System: Saccharomyces cerevisiae;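 note: PSI is a weighted mean of sequencing reads over stability bins, variants kept only with over 10 reads, mCherry proximal and sfGFP distal, peptide attached via GGGS linker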
TEST DETAILS: protein stability index of tFT-peptide fusion (C-terminal peptide) (PSI (0-1 scale)); higher = more stable (slower turnover)
PROTOCOL CONDITIONS: genetic background: wild type; temperature: 30 C
METRIC: protein stability index
Just the number.

Param readout= protein stability index; system= Saccharomyces cerevisiae; entry= LSETTAYLQQAS ; returns value. 0.693

Param readout= protein stability index; system= Saccharomyces cerevisiae; entry= LALSVRFFSVLF ; returns value. 0.587

Param readout= protein stability index; system= Saccharomyces cerevisiae; entry= LHGHFIRLIRIG ; returns value. 0.477

Param readout= protein stability index; system= Saccharomyces cerevisiae; entry= RYRSRHHSTYVL ; returns value. 0.635

Param readout= protein stability index; system= Saccharomyces cerevisiae; entry= PPHPPRPSVSSS ; returns value. 0.687

Param readout= protein stability index; system= Saccharomyces cerevisiae; entry= IGSLASRSALLL ; returns value. 0.676

Param readout= protein stability index; system= Saccharomyces cerevisiae; entry= KNKIKITKRKRK ; returns value. 0.734

Param readout= protein stability index; system= Saccharomyces cerevisiae; entry= WDEVVAIVVCPV ; returns value. 0.39

Param readout= protein stability index; system= Saccharomyces cerevisiae; entry= AISSPVLSYATP ; returns value. 0.657

Param readout= protein stability index; system= Saccharomyces cerevisiae; entry= GRGGGGGLWVRV ; returns value. 0.651

Param readout= protein stability index; system= Saccharomyces cerevisiae; entry= YGCSRALGCMGG ; returns value. 0.596

Param readout= protein stability index; system= Saccharomyces cerevisiae; entry= EQVTCGGIRVGQ ; returns value. 0.656

Param readout= protein stability index; system= Saccharomyces cerevisiae; entry= GGDCGERRGNEV ; returns value. 0.65

Param readout= protein stability index; system= Saccharomyces cerevisiae; entry= SENVSATLNNQD ; returns value. 0.708

Param readout= protein stability index; system= Saccharomyces cerevisiae; entry= PLPSPPVPPPPP ; returns value. 0.68

Param readout= protein stability index; system= Saccharomyces cerevisiae; entry= PPLSHPRPILAP ; returns value. 0.568

Param readout= protein stability index; system= Saccharomyces cerevisiae; entry= DVLSSVRGLTLL ; returns value. 0.678

Param readout= protein stability index; system= Saccharomyces cerevisiae; entry= SPPTTHPPSSHG ; returns value. 0.749

Param readout= protein stability index; system= Saccharomyces cerevisiae; entry= FPVWTALLTVRA ; returns value. 0.262

Param readout= protein stability index; system= Saccharomyces cerevisiae; entry= PPPHPPTPLPPT ; returns value. 0.701

Param readout= protein stability index; system= Saccharomyces cerevisiae; entry= FLLTVFPPLFFP ; returns value. 0.704

Param readout= protein stability index; system= Saccharomyces cerevisiae; entry= LVSLGLHAGKRI ; returns value. 0.705

Param readout= protein stability index; system= Saccharomyces cerevisiae; entry= PSPRPPPPPPPP ; returns value. 0.66

Param readout= protein stability index; system= Saccharomyces cerevisiae; entry= LVYLVCAYSECE ; returns value. 0.332

Param readout= protein stability index; system= Saccharomyces cerevisiae; entry= RHLVSPSTRAIS ; returns value. 0.77

Param readout= protein stability index; system= Saccharomyces cerevisiae; entry= IVGAGVFEERWG ; returns value. 0.77

Param readout= protein stability index; system= Saccharomyces cerevisiae; entry= PPQPRSHPPHLS ; returns value. 0.594

Param readout= protein stability index; system= Saccharomyces cerevisiae; entry= SKNQEDEYTIHE ; returns value. 0.7

Param readout= protein stability index; system= Saccharomyces cerevisiae; entry= RPASPRSPIVSR ; returns value. 0.726

Param readout= protein stability index; system= Saccharomyces cerevisiae; entry= FPAYRPARLTPA ; returns value. 0.606

Param readout= protein stability index; system= Saccharomyces cerevisiae; entry= RKGQNKKRNKIY ; returns value. 0.399

Param readout= protein stability index; system= Saccharomyces cerevisiae; entry= SPTPHPPPSPPL ; returns value. 0.728

Param readout= protein stability index; system= Saccharomyces cerevisiae; entry= ICLMRETAGRED ; returns value. 0.757

Param readout= protein stability index; system= Saccharomyces cerevisiae; entry= SSHSPFSPVLLP ; returns value. 0.71

Param readout= protein stability index; system= Saccharomyces cerevisiae; entry= KRKKKENNKIKI ; returns value. 0.756

Param readout= protein stability index; system= Saccharomyces cerevisiae; entry= NEQPSKLLAKEC ; returns value. 0.866

Param readout= protein stability index; system= Saccharomyces cerevisiae; entry= SRAAGILCVVQI ; returns value. 0.615

Param readout= protein stability index; system= Saccharomyces cerevisiae; entry= CGWAWGWRESKM ; returns value. 0.723

Param readout= protein stability index; system= Saccharomyces cerevisiae; entry= KKKKQKKRETTK ; returns value. 0.636

Param readout= protein stability index; system= Saccharomyces cerevisiae; entry= RVLSCAFSTLWA ; returns value. 0.711

Param readout= protein stability index; system= Saccharomyces cerevisiae; entry= DPSQRRPDCCTY ; returns value. 0.729
